Known inhibition at 1 µM of a selection of compounds
Target: wild-type human cardiac sodium channel, hNav1.5 (Homo sapiens, UniProt Q14524)
Sequence (Q14524 whole entry): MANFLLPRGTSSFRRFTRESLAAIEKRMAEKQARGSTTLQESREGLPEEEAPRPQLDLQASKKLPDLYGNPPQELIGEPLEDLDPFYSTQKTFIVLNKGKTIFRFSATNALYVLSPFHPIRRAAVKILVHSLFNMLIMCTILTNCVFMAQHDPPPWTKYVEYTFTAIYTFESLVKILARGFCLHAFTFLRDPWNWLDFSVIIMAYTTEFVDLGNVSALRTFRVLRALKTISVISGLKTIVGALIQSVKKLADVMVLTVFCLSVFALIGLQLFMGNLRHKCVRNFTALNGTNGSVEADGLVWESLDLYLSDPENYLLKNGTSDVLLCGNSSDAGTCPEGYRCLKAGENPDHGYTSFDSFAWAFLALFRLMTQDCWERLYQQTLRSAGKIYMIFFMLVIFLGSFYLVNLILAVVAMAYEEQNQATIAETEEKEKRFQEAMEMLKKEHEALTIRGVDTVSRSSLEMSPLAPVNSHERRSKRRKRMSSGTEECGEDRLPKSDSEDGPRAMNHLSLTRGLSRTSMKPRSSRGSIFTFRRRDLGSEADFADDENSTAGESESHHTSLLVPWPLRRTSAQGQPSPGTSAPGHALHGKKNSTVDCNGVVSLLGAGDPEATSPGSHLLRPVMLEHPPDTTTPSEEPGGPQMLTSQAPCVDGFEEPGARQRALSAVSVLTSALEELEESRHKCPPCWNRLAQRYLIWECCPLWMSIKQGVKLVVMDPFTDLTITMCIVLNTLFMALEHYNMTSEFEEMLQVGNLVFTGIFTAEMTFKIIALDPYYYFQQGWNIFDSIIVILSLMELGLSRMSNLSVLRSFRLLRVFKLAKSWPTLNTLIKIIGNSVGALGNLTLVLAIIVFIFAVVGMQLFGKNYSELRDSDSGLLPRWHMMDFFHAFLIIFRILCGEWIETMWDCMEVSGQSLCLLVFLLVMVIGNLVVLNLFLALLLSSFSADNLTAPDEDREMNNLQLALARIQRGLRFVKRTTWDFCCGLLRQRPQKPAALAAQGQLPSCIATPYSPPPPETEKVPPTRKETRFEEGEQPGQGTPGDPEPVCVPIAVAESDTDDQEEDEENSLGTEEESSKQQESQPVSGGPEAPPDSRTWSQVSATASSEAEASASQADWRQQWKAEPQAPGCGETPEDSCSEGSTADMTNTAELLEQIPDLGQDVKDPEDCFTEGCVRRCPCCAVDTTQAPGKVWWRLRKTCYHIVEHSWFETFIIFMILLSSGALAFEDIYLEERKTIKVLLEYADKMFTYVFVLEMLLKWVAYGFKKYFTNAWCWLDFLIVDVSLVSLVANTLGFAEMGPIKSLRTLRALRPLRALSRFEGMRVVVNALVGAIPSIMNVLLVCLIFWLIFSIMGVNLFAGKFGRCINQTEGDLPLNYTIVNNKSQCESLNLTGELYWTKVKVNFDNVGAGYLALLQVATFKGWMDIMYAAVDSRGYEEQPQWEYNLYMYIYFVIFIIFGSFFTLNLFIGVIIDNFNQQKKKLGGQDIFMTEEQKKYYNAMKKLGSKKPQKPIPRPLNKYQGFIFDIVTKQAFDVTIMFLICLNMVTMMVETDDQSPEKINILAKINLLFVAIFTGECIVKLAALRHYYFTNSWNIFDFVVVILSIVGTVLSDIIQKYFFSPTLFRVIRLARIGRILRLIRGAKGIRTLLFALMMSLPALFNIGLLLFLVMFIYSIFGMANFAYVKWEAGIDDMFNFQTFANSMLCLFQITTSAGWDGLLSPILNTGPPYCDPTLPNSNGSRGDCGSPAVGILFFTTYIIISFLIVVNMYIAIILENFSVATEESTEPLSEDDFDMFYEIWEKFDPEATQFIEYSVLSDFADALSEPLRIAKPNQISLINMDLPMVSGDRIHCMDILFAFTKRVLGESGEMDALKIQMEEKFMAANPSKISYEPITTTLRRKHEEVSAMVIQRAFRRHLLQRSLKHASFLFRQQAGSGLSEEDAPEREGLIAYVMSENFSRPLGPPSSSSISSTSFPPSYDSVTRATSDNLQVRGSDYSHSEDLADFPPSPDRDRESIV
Test: Peak INa screening assay (tonic and use-dependent block)
Type: cell-based
Conditions: tonic block of peak INa, 0.1 Hz; compound at 1 μM; read-out: Peak TB 1 μM
Output spec: scalar in %, unitless text.

Reference set, count: 4
O=C1c2cc(Nc3ccc(C(F)(F)F)cc3)ccc2OCCN1Cc1ccccn1 | 8
O=C1c2cc(-c3ccc(C(F)(F)F)cc3)cc(F)c2OCCN1Cc1ccccc1 | 20
O=C1c2cc(-c3ccc(C(F)(F)F)cc3)c(F)cc2OCCN1Cc1ccccc1 | 36
O=C1c2cc(-c3ccc(OC(F)(F)F)cc3)ccc2OCCN1Cc1c(F)cccc1F | 28

Recall the recorded inhibition at 1 µM for `CCn1ccc(CN2CCOc3ccc(-c4ccc(OC(F)(F)F)cc4)cc3C2=O)n1` with wild-type human cardiac sodium channel, hNav1.5 (Homo sapiens, UniProt Q14524) and state it. 15

* * *

Target: wild-type human cardiac sodium channel, hNav1.5 (Homo sapiens, UniProt Q14524)
Experiment: Late INa screening assay (QPatch whole cell patch clamp, HEK293)
Type: cell-based
Conditions: HEK293, percent block of late INa; compound at 1 μM; 10 μM Tefluthrin; read-out: Late INa 1 μM
Tick satisfied if inhibition at 1 µM is 20% or greater. Tick not satisfied if inhibition at 1 µM is less than 20%.

Is the recorded value of inhibition at 1 µM equal to or greater than 20% for this compound? Cc1cnc(CN2CCOc3ccc(-c4ccc(OC(F)(F)F)cc4)cc3C2=O)o1 [II-33] satisfied

Is inhibition at 1 µM at least 20%? Consider C[C@@H]1COc2ccc(-c3ccc(C(F)(F)F)cc3)cc2C(=O)N1 [II-19] satisfied

Is inhibition at 1 µM at least 20%? Consider O=C1c2ccc(-c3cccc(C(F)(F)F)c3)cc2OCCN1Cc1ncccn1 [IV-4] not satisfied

Dear colleague, could you confirm whether O=C1c2cc(CCc3ccc(C(F)(F)F)cc3)ccc2OCCN1Cc1ccccc1 [VIII-11] has inhibition at 1 µM at or above 20%? satisfied

Exam item: decide whether the reported inhibition at 1 µM for O=C1c2cc(-c3ccc(OC(F)(F)F)cc3)ncc2OCCN1Cc1ncccn1 [XII-5] is at least 20%. satisfied

Item N#CC1(c2ccc(-c3ccc4c(c3)C(=O)N(Cc3ncccn3)CCO4)cc2)CCCC1 [II-122] with inhibition at 1 µM of 20% or above? not satisfied

hey, is inhibition at 1 µM for this one >= 20%? O=C1c2cc(-c3ccc(OC(F)(F)F)cc3)ccc2OCCN1Cc1c(F)cccc1F [II-49] satisfied

Is inhibition at 1 µM for O=C1c2cc(-c3ccc(Cl)c(F)c3)ccc2OCCN1Cc1ncccc1F [II-169] at or above 20%? satisfied

Is the recorded value of inhibition at 1 µM equal to or greater than 20% for this compound? O=C(c1cc[nH]n1)N1CCOc2ccc(-c3ccc(OC(F)(F)F)cc3)cc2C1 [III-15] satisfied

* * *

Target: wild-type human cardiac sodium channel, hNav1.5 (Homo sapiens, UniProt Q14524)
Assay: Late INa screening assay (QPatch whole cell patch clamp, HEK293)
Assay type: cell-based
Conditions: HEK293, percent block of late INa; compound at 1 μM; 10 μM Tefluthrin; read-out: Late INa 1 μM
measurementType: inhibition at 1 µM

O=C1c2cc(-c3ccc(OC(F)(F)F)cc3)ccc2OCCN1Cc1c(Cl)cccc1Cl [II-48] | 47%
O=C1c2cc(C#Cc3ccccc3)ccc2OCCN1Cc1ncccn1 [VIII-5] | 32%
O=C1c2cc(-c3ccc(C(F)(F)F)cn3)ccc2OCCN1Cc1ccccn1 [VI-26] | 28%
CC1(CN2CCOc3ccc(-c4ccc(OC(F)(F)F)cc4)cc3C2=O)COC1 [II-1] | 25%
O=C1c2cc(-c3ccc(C(F)(F)F)cc3)ccc2OC[C@H]2CN(CC(F)F)CCN12 [II-22] | 30%

Entry C[C@H]1COc2ccc(-c3ccc(C(F)(F)F)cc3)cc2C(=O)N1Cc1ncccn1 [II-12] has what inhibition at 1 µM? 21%

Endpoint output: inhibition at 1 µM of O=C1c2cc(-c3ccc(C(F)F)cc3)ccc2OCCN1Cc1ccccn1 [II-157] . Value? 43%

Requested read-out: inhibition at 1 µM. Entry: O=C1c2cc(-c3ccc(OC(F)(F)F)cc3)ccc2OCCN1CCc1ccccn1 [II-54] 51%

Would you kindly share the measured inhibition at 1 µM for O=C1c2cc(-c3ccc(C(F)(F)F)cc3F)ccc2OCCN1Cc1ncccc1F [II-170] ? 66%

* * *

Reported inhibition at 1 µM by item:
Target: wild-type human cardiac sodium channel, hNav1.5 (Homo sapiens)
Experiment: Peak INa screening assay (tonic and use-dependent block)
Format: cell-based
Conditions: tonic block of peak INa, 0.1 Hz; compound at 1 μM; read-out: Peak TB 1 μM
Procedure: The late sodium current (Late INa) and peak sodium current (Peak INa) assays are performed on an automated electrophysiology platform, QPatch 16× (Sophion Bioscience, Copenhagen, Denmark), which uses the whole cell patch clamp technique to measure currents through the cell membrane of up to 16 cells at a time. […] Compounds were also evaluated for their effect in several other assays, including their effect on Peak INa. […]
Could you give me the number in %? Just the number is fine.

Worked examples follow.
O=C1c2cc(C#Cc3ccc(OC(F)(F)F)cc3)ccc2OCCN1Cc1ncccn1 | 12
Cn1cc(C(=O)N2CCOc3ccc(-c4ccc(OC(F)(F)F)cc4)cc3C2)cn1 | 10
O=C1c2cc(-c3ccc(OC(F)(F)F)cc3)ccc2OCCN1Cc1ccccn1 | 22
O=C1c2cc(-c3ccc(OC(F)(F)F)cc3)ccc2OCCN1CC1CC1 | 9

GET /values?readout=inhibition at 1 µM&item= `O=C1c2cc(-c3ccc(OC(F)(F)F)cc3)ccc2OCCN1Cc1c(Cl)cccc1Cl` 13

* * *

Molecular target: hNav 1.8 sodium channel isoform (Homo sapiens, UniProt Q9Y5Y9)
Sequence (Q9Y5Y9 whole entry, canonical isoform): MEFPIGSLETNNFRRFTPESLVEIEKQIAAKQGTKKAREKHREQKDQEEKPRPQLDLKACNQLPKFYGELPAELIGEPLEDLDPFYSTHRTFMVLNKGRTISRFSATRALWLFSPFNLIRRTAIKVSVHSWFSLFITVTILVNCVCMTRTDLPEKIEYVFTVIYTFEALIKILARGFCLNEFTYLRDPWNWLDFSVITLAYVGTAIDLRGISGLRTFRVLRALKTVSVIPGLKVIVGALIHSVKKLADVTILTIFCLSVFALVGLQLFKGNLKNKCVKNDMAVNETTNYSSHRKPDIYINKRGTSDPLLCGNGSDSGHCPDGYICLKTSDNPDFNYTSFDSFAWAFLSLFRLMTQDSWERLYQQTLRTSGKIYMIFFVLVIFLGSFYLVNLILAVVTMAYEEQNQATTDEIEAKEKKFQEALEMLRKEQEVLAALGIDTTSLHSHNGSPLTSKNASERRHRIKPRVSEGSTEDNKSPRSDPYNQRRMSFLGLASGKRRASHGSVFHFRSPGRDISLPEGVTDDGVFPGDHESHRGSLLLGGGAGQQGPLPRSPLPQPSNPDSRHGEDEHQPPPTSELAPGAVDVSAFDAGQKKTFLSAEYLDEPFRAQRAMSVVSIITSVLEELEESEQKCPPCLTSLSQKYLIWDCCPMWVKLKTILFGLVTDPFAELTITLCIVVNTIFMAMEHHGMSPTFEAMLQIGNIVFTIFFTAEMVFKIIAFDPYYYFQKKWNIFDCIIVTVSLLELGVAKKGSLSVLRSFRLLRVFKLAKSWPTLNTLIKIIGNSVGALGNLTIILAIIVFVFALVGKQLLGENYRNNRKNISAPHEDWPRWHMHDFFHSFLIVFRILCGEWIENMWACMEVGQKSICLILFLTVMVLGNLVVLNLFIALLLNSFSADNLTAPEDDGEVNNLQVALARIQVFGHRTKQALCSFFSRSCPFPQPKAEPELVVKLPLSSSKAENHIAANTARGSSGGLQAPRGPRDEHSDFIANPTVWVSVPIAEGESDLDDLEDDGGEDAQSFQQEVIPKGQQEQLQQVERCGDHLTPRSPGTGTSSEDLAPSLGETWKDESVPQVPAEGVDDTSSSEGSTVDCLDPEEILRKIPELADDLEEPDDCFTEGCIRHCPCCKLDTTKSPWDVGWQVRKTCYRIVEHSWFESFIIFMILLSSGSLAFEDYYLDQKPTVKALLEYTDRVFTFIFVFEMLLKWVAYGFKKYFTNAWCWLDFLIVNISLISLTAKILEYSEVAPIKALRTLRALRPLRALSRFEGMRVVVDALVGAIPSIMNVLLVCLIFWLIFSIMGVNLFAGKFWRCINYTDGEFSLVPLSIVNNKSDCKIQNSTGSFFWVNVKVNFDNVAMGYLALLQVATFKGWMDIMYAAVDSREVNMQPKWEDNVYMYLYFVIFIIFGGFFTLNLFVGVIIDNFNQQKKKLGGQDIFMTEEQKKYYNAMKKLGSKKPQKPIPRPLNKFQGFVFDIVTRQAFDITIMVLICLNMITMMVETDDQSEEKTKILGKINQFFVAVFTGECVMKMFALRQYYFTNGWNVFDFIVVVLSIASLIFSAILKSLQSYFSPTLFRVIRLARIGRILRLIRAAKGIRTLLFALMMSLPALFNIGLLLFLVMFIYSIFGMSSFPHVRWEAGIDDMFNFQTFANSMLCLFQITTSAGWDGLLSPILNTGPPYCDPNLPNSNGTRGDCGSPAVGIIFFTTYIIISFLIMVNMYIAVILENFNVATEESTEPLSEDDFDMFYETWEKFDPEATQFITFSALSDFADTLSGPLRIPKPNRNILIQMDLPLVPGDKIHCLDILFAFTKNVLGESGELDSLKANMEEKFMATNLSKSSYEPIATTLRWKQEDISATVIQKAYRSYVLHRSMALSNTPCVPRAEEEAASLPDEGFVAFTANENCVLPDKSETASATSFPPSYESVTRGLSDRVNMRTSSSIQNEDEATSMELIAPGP
Assay: hNav1.8 sodium channel block
Type: cell-based
Details: frequency of 25 Hz
Source text: Compounds of this disclosure that block cardiac late INa may also mediate UDB of other Na^+ channel isoforms including the major Na^+ channel isoforms in peripheral nervous system pain fibers, NaV1.7 and 1.8. Compounds of this disclosure that block these channels may also be useful to decrease neuropathic pain. […]
measurementType: IC50 (nM)
Output spec: scalar in nM, unitless text.

What IC50 value was documented for this molecule, `O=C1c2cc(-c3ccc(OC(F)(F)F)cc3)ccc2OCCN1Cc1ncccn1` ? 1500

* * *

Molecular target: wild-type human cardiac sodium channel, hNav1.5 (Homo sapiens, UniProt Q14524)
Assay: Peak INa screening assay (tonic and use-dependent block)
Type: cell-based
Conditions: tonic block of peak INa, 0.1 Hz; compound at 1 μM; read-out: Peak TB 1 μM
In this section we review reported inhibition at 1 µM values for a set of compounds.
Respond numerically; units are % and should not be typed.

Would you please look over these solved cases?
Cn1ccc(CN2CCOc3ccc(-c4ccc(OC(F)(F)F)cc4)cc3C2=O)n1 | 12
COc1ccnc(CN2CCOc3ccc(-c4ccc(OC(F)(F)F)cc4)cc3C2=O)n1 | 28
O=C1c2cc(-c3ccc(OC(F)(F)F)cc3)ccc2OCCN1Cc1cccc(C(F)(F)F)n1 | 8
O=C1c2cc(-c3ccc(OC(F)(F)F)cc3)ccc2OCCN1CCn1cccn1 | 5
Cc1cncc(CN2CCOc3ccc(-c4ccc(OC(F)(F)F)cc4)cc3C2=O)n1 | 21

Need inhibition at 1 µM of `O=C1c2cc(-c3ccc(OC(F)(F)F)cc3)ccc2OCCN1Cc1ccc(F)cc1` , thanks. 10

Entry `Cc1cnc(CN2CCOc3ccc(-c4ccc(OC(F)(F)F)cc4)cc3C2=O)o1` has what inhibition at 1 µM? 10

// inhibition at 1 µM lookup, key: `O=C1c2cc(-c3ccc(OC(F)(F)F)cc3)ccc2OCCN1CCc1ccccn1` 13

Field request: inhibition at 1 µM | item: `O=C1c2cc(-c3ccc(OC(F)(F)F)cc3)ncc2OCCN1Cc1ccccc1` 25

Query: inhibition at 1 µM; subject: `CCc1ccc(-c2ccc3c(c2)C(=O)N(Cc2ncccn2)CCO3)cc1` 8

Value lookup for inhibition at 1 µM; key = `O=C1CN(Cc2ccccc2)C(=O)c2cc(-c3ccc(C(F)(F)F)cc3)ccc2N1` 6

State the recorded inhibition at 1 µM for this entry: `O=C1c2cc(-c3ccc(OC(F)(F)F)cc3)cc(F)c2OCCN1Cc1ccccc1` 15

inhibition at 1 µM for `Cc1cccc(CN2CCOc3ccc(-c4ccc(OC(F)(F)F)cc4)cc3C2=O)n1` ? 47

Fill in: inhibition at 1 µM of `COc1cccnc1CN1CCOc2cnc(-c3ccc(OC(F)(F)F)cc3)cc2C1=O` is ___ 13

* * *

Target: wild-type human cardiac sodium channel, hNav1.5 (Homo sapiens, UniProt Q14524)
Assay: Peak INa screening assay (tonic and use-dependent block)
Format: cell-based
Conditions: use-dependent block of peak INa, 3 Hz; compound at 1 μM; read-out: Peak UDB 1 μM
measurementType: inhibition at 1 µM (%)
Hi! Could you send only the number? It should be in %, unit omitted.

Recorded results for 5 molecules are shown here.
O=C1c2cc(-c3ccc(OC(F)(F)F)cc3)ccc2OCCN1Cc1cnccn1 | 8
O=C1c2cc(-c3ccc(OC(F)(F)F)cc3)ccc2OCCN1CC1CC1 | 2
CCc1ccc(-c2ccc3c(c2)C(=O)N(Cc2ncccn2)CCO3)cc1 | 11
Cn1ccnc1CN1CCOc2ccc(-c3ccc(OC(F)(F)F)cc3)cc2C1=O | 30
O=C1c2cc(-c3ccc(Cl)c(F)c3)ccc2OCCN1Cc1ncccc1F | 23

Request the reported inhibition at 1 µM associated with `O=C1c2cc(-c3ccc(C4CC4)s3)ccc2OCCN1Cc1ccccn1` 26

What inhibition at 1 µM value was documented for this molecule, `O=C1c2cc(-c3ccc(CC(F)(F)F)cc3)ccc2OCCN1Cc1ccccn1` ? 14
